- TGT: DRB1*1302 (DR6w19) (Homo sapiens, UniProt P01903+P01911, A100E/A169T/K41T/L162R/M171V/P40S/Q125H/Q178H/Q39Y/Q99D/R42S/S66N/T262R/V115G/W38E/Y61H)
- Sequence (P01903 26-254 limits assumed, other chains not shown): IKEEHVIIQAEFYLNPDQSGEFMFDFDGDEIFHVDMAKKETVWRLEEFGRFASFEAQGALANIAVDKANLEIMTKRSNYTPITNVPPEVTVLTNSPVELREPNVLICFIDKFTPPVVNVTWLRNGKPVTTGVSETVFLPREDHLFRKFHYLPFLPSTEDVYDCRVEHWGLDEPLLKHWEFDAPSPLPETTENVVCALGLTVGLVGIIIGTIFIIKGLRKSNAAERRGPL
- ASSAY_NAME: HLA class II peptide binding assay, purified HLA
- RECORDED_CONDITIONS: Table XXIX; read-out: DR6w19 nM
MEASURED_QUANTITY: pIC50
# pIC50 = -log10(concentration in molar units)

Example entries and their recorded answers appear below.
Prompt: Consider the compound CC(C)C[C@H](NC(=O)[C@H](CCC(=O)O)NC(=O)[C@@H](NC(=O)[C@@H](N)CCC(=O)O)[C@@H](C)O)C(=O)N[C@@H](CCCNC(=N)N)C(=O)N[C@@H](CCCCN)C(=O)N[C@H](C(=O)N[C@@H](CCCCN)C(=O)N[C@H](C(=O)N[C@@H](CC(C)C)C(=O)NCC(=O)N[C@@H](CO)C(=O)NCC(=O)N[C@@H](C)C(=O)N[C@@H](Cc1ccccc1)C(=O)O)C(C)C)C(C)C and give its measured pIC50.
Response: 5.60

Prompt: State the recorded pIC50 for this entry: CC[C@H](C)[C@H](NC(=O)[C@H](CCC(N)=O)NC(=O)[C@H](CCSC)NC(=O)[C@H](CS)NC(=O)[C@H](Cc1c[nH]c2ccccc12)NC(=O)[C@H](CC(N)=O)NC(=O)[C@H](CC(C)C)NC(=O)[C@@H](N)CC(C)C)C(=O)N[C@@H](C)C(=O)N[C@@H](CCCCN)C(=O)NCC(=O)N[C@@H](CCSC)C(=O)N[C@@H](CO)C(=O)N[C@@H](Cc1ccc(O)cc1)C(=O)N[C@@H](CC(C)C)C(=O)O
Response: 7.05

Prompt: Record request: pIC50 value, item CC[C@H](C)[C@H](NC(=O)CNC(=O)[C@@H](NC(=O)[C@@H](NC(=O)[C@H](C)NC(=O)[C@H](CO)NC(=O)[C@@H](NC(=O)[C@@H](NC(=O)[C@H](CO)NC(=O)[C@@H](NC(=O)[C@H](CC(C)C)NC(=O)[C@@H]1CCCN1C(=O)[C@H](CO)NC(=O)[C@H](C)N)[C@@H](C)O)[C@@H](C)CC)[C@@H](C)CC)C(C)C)C(C)C)C(=O)N[C@@H](CC(C)C)C(=O)O
Response: 7.14

Next:
Prompt: Reported pIC50 for CSCC[C@H](NC(=O)[C@@H](NC(=O)[C@H](Cc1ccc(O)cc1)NC(=O)[C@H](C)NC(=O)[C@H](CCC(=O)O)NC(=O)[C@@H](N)CC(=O)O)C(C)C)C(=O)N[C@@H](C)C(=O)NCC(=O)N[C@H](C(=O)NCC(=O)N[C@@H](CO)C(=O)N1CCC[C@H]1C(=O)N[C@@H](Cc1ccc(O)cc1)C(=O)N[C@H](C(=O)N[C@@H](CO)C(=O)O)C(C)C)C(C)C : what is it?
Response: 5.76

----------
- TGT: HLA-A*0301 (Homo sapiens, UniProt P04439)
pIC50: −log10 of the molar value. Where a SMILES comes first, the peptide text is derived from it. [ ]: non-standard residue; d: D form. Abu = CC[C@H](N)C(=O)O
Answer NOT MET if pIC50 is under 7, and MET if it is 7 or more.

Illustrative cases are given below, each with its answer.
Prompt: For this compound, is measured pIC50 7 or higher? CC[C@H](NC(=O)[C@H](CC(N)=O)NC(=O)[C@@H](NC(=O)[C@@H](N)CC)C(C)C)C(=O)N[C@@H](CO)C(=O)N[C@@H](CCC(N)=O)C(=O)N[C@@H](Cc1ccccc1)C(=O)N[C@@H](CC(C)C)C(=O)N[C@@H](CCCCN)C(=O)O [Her2/neu.528.B1B4K9] (H-[Abu]VN[Abu]SQFLK-OH)
Response: MET

Prompt: Exam item: decide whether the reported pIC50 for CC(C)C[C@H](NC(=O)[C@H](CCC(N)=O)NC(=O)[C@H](CC(=O)O)NC(=O)[C@H](Cc1c[nH]c2ccccc12)NC(=O)[C@@H]1CCCN1C(=O)[C@@H](NC(=O)[C@@H](NC(=O)[C@@H](N)Cc1c[nH]cn1)C(C)C)C(C)C)C(=O)N[C@@H](Cc1ccccc1)C(=O)N[C@@H](CCCCN)C(=O)O is at least 7.
Response: NOT MET

Prompt: Entry CC[C@H](C)[C@H](N)C(=O)N[C@H](C(=O)N[C@@H](Cc1c[nH]c2ccccc12)C(=O)N[C@@H](CCCCN)C(=O)N[C@@H](CC(=O)O)C(=O)N[C@H](C(=O)N[C@@H](Cc1ccccc1)C(=O)N[C@@H](Cc1c[nH]cn1)C(=O)N[C@@H](CCCCN)C(=O)O)[C@@H](C)CC)C(C)C : is its pIC50 no less than 7?
Response: MET

Prompt: Say whether CC[C@H](NC(=O)CNC(=O)CNC(=O)[C@H](C)NC(=O)[C@H](CC)NC(=O)[C@@H](NC(=O)[C@@H](N)[C@@H](C)O)C(C)C)C(=O)N[C@@H](C)C(=O)N[C@@H](CCCNC(=N)N)C(=O)O [Her2/neu.218.B3B7] (H-TV[Abu]AGG[Abu]AR-OH) shows pIC50 of 7 or more.
Response: NOT MET

Prompt: API: above_or_equal(metric=pIC50, cutoff=7) for item CC[C@H](C)[C@H](N)C(=O)N[C@H](C(=O)N[C@@H](Cc1c[nH]c2ccccc12)C(=O)N[C@@H](CC(C)C)C(=O)NCC(=O)N[C@@H](CC(C)C)C(=O)N[C@@H](CCCNC(=N)N)C(=O)N[C@@H](CO)C(=O)N[C@@H](CC(C)C)C(=O)N[C@@H](CCCCN)C(=O)O)C(C)C
Response: MET

Prompt: Dear colleague, could you confirm whether CC(C)[C@H](NC(=O)[C@@H](NC(=O)[C@@H](N)CCCNC(=N)N)[C@@H](C)O)C(=O)N[C@@H](CS)C(=O)N[C@@H](C)C(=O)NCC(=O)NCC(=O)N[C@@H](CS)C(=O)N[C@@H](C)C(=O)N[C@@H](CCCNC(=N)N)C(=O)O has pIC50 at or above 7?
Response: NOT MET

***
Prompt: In plain terms: is recorded pIC50 at least 7 for CC(C)[C@H](NC(=O)[C@@H](N)[C@@H](C)O)C(=O)N[C@@H](CS)C(=O)N[C@@H](C)C(=O)NCC(=O)NCC(=O)N[C@@H](CS)C(=O)N[C@@H](C)C(=O)N[C@@H](CCCNC(=N)N)C(=O)O ?
Response: NOT MET

----------
- TGT: HLA-A*1101 (Homo sapiens, UniProt P04439, A114D/D185E/E176A/F33Y/L180Q/S129P/T187R)
- Sequence (P04439 25-365 limits assumed, stated change not applied): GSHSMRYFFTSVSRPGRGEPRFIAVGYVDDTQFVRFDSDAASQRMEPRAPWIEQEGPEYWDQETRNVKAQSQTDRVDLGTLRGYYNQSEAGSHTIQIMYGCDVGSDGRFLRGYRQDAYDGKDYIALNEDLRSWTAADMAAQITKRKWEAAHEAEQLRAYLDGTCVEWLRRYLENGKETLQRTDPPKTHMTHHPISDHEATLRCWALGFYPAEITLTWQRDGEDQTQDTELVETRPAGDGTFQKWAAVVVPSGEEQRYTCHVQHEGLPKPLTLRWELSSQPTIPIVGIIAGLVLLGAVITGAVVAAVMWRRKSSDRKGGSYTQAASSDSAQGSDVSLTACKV
- Assay type: binding
- RECORDED_CONDITIONS: Table XXIII, HLA-A3 supermotif-bearing peptides
Where no end group is shown, it is not given here.
MEASURED_QUANTITY: pIC50
Scale: pIC50 equals -log10([C]), with [C] in mol/L.

Check out these entries, answers already filled in.
Prompt: Look up pIC50: HVVPWDQLFR [Her2/neu.478.V2]
Response: 5.88

Prompt: Quick one: pIC50 of AVPLDSTFYK [Her2/neU.997.V2K10] ?
Response: 7.48

Now for a further sequence.
Prompt: Returns the measured pIC50 for the input sequence. Input: TILWKDIFHK [Her2/neu.166]
Response: 8.77

----------
- TGT: DRB1*0301 (DR3) (Homo sapiens, UniProt P01903+P01911, A100K/A102G/A103R/A169T/F55Y/I96L/K41T/L162R/M171V/P40S/Q125H/Q178H/Q39Y/R42S/S66N/T106N/T262R/W38E/Y61H)
- Sequence (P01903 26-254 limits assumed, other chains not shown): as the sequence (P01903 26-254 limits assumed, other chains not shown) above
- ASSAY_NAME: HLA class II peptide binding assay, purified HLA
- RECORDED_CONDITIONS: Table XIX, DR supermotif peptides; unit not given
MEASURED_QUANTITY: DR3 binding data
Simply state the number, no unit and no words.

Prompt: I would be grateful if you could share the reported DR3 binding data for CC[C@H](C)[C@H](NC(=O)[C@H](CCCNC(=N)N)NC(=O)CNC(=O)[C@H](CCCNC(=N)N)NC(=O)[C@@H](NC(=O)[C@@H](NC(=O)[C@H](CCC(N)=O)NC(=O)[C@H](CC(C)C)NC(=O)[C@H](CC(N)=O)NC(=O)[C@H](CCC(N)=O)NC(=O)[C@H](Cc1ccccc1)NC(=O)[C@@H](NC(=O)[C@H](CO)NC(=O)[C@@H](N)CC(C)C)C(C)C)C(C)C)[C@@H](C)CC)C(=O)N[C@@H](CC(C)C)C(=O)O .
Response: 0.0010

More entries:
Prompt: Could you tell me which DR3 binding data is on file for CC[C@H](C)[C@H](NC(=O)CNC(=O)[C@H](Cc1ccccc1)NC(=O)[C@@H](NC(=O)[C@@H](NC(=O)CNC(=O)[C@H](CC(C)C)NC(=O)[C@@H](N)C(C)C)C(C)C)C(C)C)C(=O)N[C@@H](CC(C)C)C(=O)N[C@H](C(=O)N[C@@H](CCCCN)C(=O)N[C@@H](CCCNC(=N)N)C(=O)N[C@@H](CCCNC(=N)N)C(=O)N[C@@H](CCC(N)=O)C(=O)N[C@@H](CCC(N)=O)C(=O)O)[C@@H](C)CC ?
Response: 0.0021
